Each entry below carries its reported hCRHR1 Luciferase Reporter Assay IC50.
# tgt: T1, corticotropin-releasing hormone (CRH) peptide (human and mouse (same sequence), not fully specified)
# T1 peptide: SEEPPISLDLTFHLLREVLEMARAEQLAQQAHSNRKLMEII
# experiment_notes: cell-based or functional assay
Numbers only; they are read as nM.

Solved entries:
1) PR302341-42 (antibody, human IgG1, kappa, V domains shown) VH: QVQLVQSGAEVKKPGASVKVSCKASGYTFTDYFMKWVRQAPGQGLEWMGVINPNNGDIFYNQKFKGRVTMTVDKSISTAYMELSRLRSDDTAVYYCARGTDRALFAYWGQGTLVTVSS VL: DVVMTQSPLSLPVTLGQPASISCRSGQSIVHSSGNTYLEWYQQRPGQSPRLLIYKVSNRFSGVPDRFSGSGSGTDFTLKISRVEAEDLGVYYCFQGSHIPWTFGGGTKVEIKR; 1.98
2) PR302341-35 (antibody, human IgG1, kappa, V domains shown) VH: QVQLVQSGAEVKKPGASVKVSCKASGYTFTDYFMKWVRQAPGQGLEWMGVINPNNADIFYNQKFKGRVTMTVDKSISTAYMELSRLRSDDTAVYYCARGTDRALFAYWGQGTLVTVSS VL: DVVMTQSPLSLPVTLGQPASISCRSGQSIVHSEGNTYLEWYQQRPGQSPRLLIYKVSNRFSGVPDRFSGSGSGTDFTLKISRVEAEDLGVYYCFQGSHIPWTFGGGTKVEIKR; 1.75

Shift focus to the following entry.
[in] Output hCRHR1 Luciferase Reporter Assay IC50 of PR302341-48 (antibody, human IgG1, kappa, V domains shown) VH: QVQLVQSGAEVKKPGASVKVSCKASGYTFTDYFMKWVRQAPGQGLEWMGVINPNQGDIFYNQKFKGRVTMTVDKSTSTAYMELSSLRSEDTAVYYCARGTDRALFAYWGQGTLVTVSS VL: DVVMTQTPLSSPVTLGQPASISCRSGQSIVHSDANTYLEWYQQRPGQPPRLLIYKVSNRFSGVPDRFSGSGAGTDFTLKISRVEAEDLGVYYCFQGSHIPWTFGGGTKVEIKR
[out] 0.507

Source: patent US20260042834A1
